From: patent US9206191B2

- procedure-details: single dose PK in male ICR mouse (IV and PO)
- Assay type: in vivo
- measurement-parameters: mouse, plasma; male ICR mice; IV (1 mg/Kg)
quantity: AUC(0-t) (ng·h/mL)

{"compound": "CS(=O)(=O)c1nn(Cc2nc3cc(Cl)ccc3n2CC2COC2)c2cnccc12 [Example 2-22]", "recorded-result": 976}

* * *

- procedure-details: single dose PK in male ICR mouse (IV and PO)
- Type: in vivo
- measurement-parameters: mouse, plasma; male ICR mice; PO (8.27 mg/kg)

{"compound": "CS(=O)(=O)c1nn(Cc2nc3cc(Cl)ccc3n2CCC(F)(F)F)c2cnccc12", "AUC(0-t) [ng·h/mL]": 4800}

* * *

- procedure-details: single dose PK in male ICR mouse (IV and PO)
- Assay type: in vivo
- measurement-parameters: mouse, plasma; male ICR mice; PO (6 mg/kg)

{"compound": "CS(=O)(=O)c1nn(Cc2nc3cc(Cl)ccc3n2CCCC(F)(F)F)c2cnccc12", "half-life / min": 49.9}

* * *

- System: RSV Long strain
- procedure-details: Viral Cytopathic Effect (CPE) Assay
- Assay type: cell-based
- measurement-parameters: human respiratory syncytial virus, 144 h, cell viability after 6 days, Cell Counting kit-8
pEC50: −log10 of the molar value.
Rule: measured pEC50 below 8 gets fulfilled; anything equal to or greater than 8 gets not fulfilled.

{"molecule": "[2H]C([2H])(O)CCn1c(Cn2nc(S(C)(=O)=O)c3ccncc32)nc2cc(Cl)ccc21 [Example 13]", "category-label": "not fulfilled"}
{"molecule": "CS(=O)(=O)c1nn(Cc2nc3cc(Cl)ccc3n2C2CCC(O)C2)c2c[n+]([O-])ccc12 (centres unmarked) [Example 2-12]", "category-label": "fulfilled"}
{"molecule": "CS(=O)(=O)c1nn(Cc2nc3cc(Cl)ccc3n2[C@H]2CC[C@H](O)C2)c2cnccc12 (relative stereo) [Example 2-36]", "category-label": "not fulfilled"}
{"molecule": "CS(=O)(=O)c1nn(Cc2nc3cc(Cl)ccc3n2C2COC2)c2cnccc12 [Example 2-5]", "category-label": "fulfilled"}
{"molecule": "CS(=O)(=O)c1nn(Cc2nc3cc(Cl)ccc3n2[C@H]2C[C@H](O)C2)c2cnccc12 [Example 2-32]", "category-label": "not fulfilled"}
{"molecule": "CS(=O)(=O)c1nn(Cc2nc3cc(Cl)ccc3n2[C@@H]2CCN(CC(F)(F)F)C2)c2cnccc12 [Example 2-20]", "category-label": "fulfilled"}
{"molecule": "CS(=O)(=O)c1nn(Cc2nc3cc(Cl)ccc3n2C2CCNCC2)c2ccccc12 [Example 2-15]", "category-label": "fulfilled"}
{"molecule": "CS(=O)(=O)c1nn(Cc2nc3cc(Cl)ccc3n2CCCCO)c2cnccc12 [Example 2-30]", "category-label": "not fulfilled"}
{"molecule": "CS(=O)(=O)c1nn(Cc2nc3cc(Cl)ccc3n2CCC(O)C(F)F)c2cnccc12 (centres unmarked) [Example 2-44]", "category-label": "not fulfilled"}
{"molecule": "CS(=O)(=O)c1nn(Cc2nc3cc(Cl)ccc3n2CC2CCOC2)c2cnccc12 (centres unmarked) [Example 2-31]", "category-label": "not fulfilled"}
{"molecule": "CS(=O)(=O)CCCn1c(Cn2cc(S(=O)(=O)C3CC3)c3ccccc32)nc2cc(Cl)ccc21 [Example 1-7]", "category-label": "fulfilled"}

* * *

- Test system: RSV Long strain
- procedure-details: Viral Cytopathic Effect (CPE) Assay
- Format: cell-based
- measurement-parameters: human respiratory syncytial virus, 144 h, cell viability after 6 days, Cell Counting kit-8

{"compound": "CS(=O)(=O)c1nn(Cc2nc3cc(Cl)ccc3n2C2CCC(F)(F)C2)c2ccccc12 (centres unmarked)", "EC50 [nM]": 6.97}
{"compound": "CS(=O)(=O)c1nn(Cc2nc3cc(Cl)ccc3n2[C@H]2C[C@H](C(=O)O)C2)c2cnccc12", "EC50 [nM]": 7}
{"compound": "CS(=O)(=O)c1nn(Cc2nc3cc(Cl)ccc3n2C2CCOC2)c2cnccc12 (centres unmarked)", "EC50 [nM]": 7.57}
{"compound": "CS(=O)(=O)c1nn(Cc2nc3cc(Cl)ccc3n2[C@H]2C[C@](C)(O)C2)c2cnccc12", "EC50 [nM]": 7}
{"compound": "CS(=O)(=O)c1nn(Cc2nc3cc(Cl)ccc3n2C2CCS(=O)(=O)C2)c2ccccc12 (centres unmarked)", "EC50 [nM]": 7.86}

* * *

- System: RSV Long strain
- procedure-details: Viral Cytopathic Effect (CPE) Assay
- Assay type: cell-based
- measurement-parameters: human respiratory syncytial virus, 144 h, cell viability after 6 days, Cell Counting kit-8
pEC50: −log10 of the molar value.
quantity: pEC50

{"molecule": "CS(=O)(=O)c1nn(Cc2nc3cc(Cl)ccc3n2C2CCS(=O)(=O)C2)c2cnccc12 (stereo in doubt)", "measurement-target": "RSV Long strain", "recorded-result": 8.05}
{"molecule": "CS(=O)(=O)c1nn(Cc2nc3cc(Cl)ccc3n2CCCC(F)(F)F)c2c[n+]([O-])ccc12", "measurement-target": "RSV Long strain", "recorded-result": 7.80}
{"molecule": "CS(=O)(=O)c1nn(Cc2nc3cc(Cl)ccc3n2CCCO)c2cnccc12", "measurement-target": "RSV Long strain", "recorded-result": 8.12}
{"molecule": "CC(=O)N1CCC(n2c(Cn3nc(S(C)(=O)=O)c4ccncc43)nc3cc(Cl)ccc32)C1 (stereo not drawn)", "measurement-target": "RSV Long strain", "recorded-result": 7.79}
{"molecule": "CS(=O)(=O)c1nn(Cc2nc3cc(Cl)ccc3n2[C@H]2C[C@@](O)(CO)C2)c2cnccc12", "measurement-target": "RSV Long strain", "recorded-result": 8.14}
{"molecule": "CS(=O)(=O)c1nn(Cc2nc3cc(Cl)ccc3n2CCC2(O)CC2)c2cnccc12", "measurement-target": "RSV Long strain", "recorded-result": 8.06}
{"molecule": "CS(=O)(=O)CCCn1c(Cn2nc(S(C)(=O)=O)c3ccncc32)cc2cc(Cl)ccc21", "measurement-target": "RSV Long strain", "recorded-result": 8.09}
{"molecule": "CC(C)(O)CCn1c(Cn2nc(S(C)(=O)=O)c3ccncc32)nc2cc(Cl)ccc21", "measurement-target": "RSV Long strain", "recorded-result": 8.09}
{"molecule": "CS(=O)(=O)c1nn(Cc2nc3cc(Cl)ccc3n2[C@H]2C[C@@](C)(O)C2)c2cnccc12", "measurement-target": "RSV Long strain", "recorded-result": 8.01}
{"molecule": "CS(=O)(=O)c1nn(Cc2nc3cc(Cl)ccc3n2CC2COC2)c2cnccc12", "measurement-target": "RSV Long strain", "recorded-result": 8.22}
{"molecule": "CS(=O)(=O)c1nn(Cc2nc3cc(Cl)ccc3n2C2CCN(C(=O)CO)C2)c2cnccc12 (stereo not drawn)", "measurement-target": "RSV Long strain", "recorded-result": 7.96}
{"molecule": "CS(=O)(=O)c1nn(Cc2nc3cc(Cl)ccc3n2C2CCNC(=O)C2)c2cnccc12 (stereo not drawn)", "measurement-target": "RSV Long strain", "recorded-result": 8.13}
